Attribution: patent US12383631B2

- experimental_target: T1, human IL-18 binding protein isoform a (IL-18BPa) (Homo sapiens, UniProt O95998)
- T1 sequence (O95998 31-194): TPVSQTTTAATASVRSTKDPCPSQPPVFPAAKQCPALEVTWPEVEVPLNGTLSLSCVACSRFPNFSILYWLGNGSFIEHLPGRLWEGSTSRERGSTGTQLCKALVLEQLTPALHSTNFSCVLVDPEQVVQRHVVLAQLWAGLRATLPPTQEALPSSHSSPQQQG
- protocol: IL-18 Binding Protein inhibition cellular assay in NK-92 cells (Example 4 / 17C)
- Assay type: cell-based
- condition_label: inhibition by IL-18BP of IFNγ stimulation in NK92 cells
pIC50: −log10 of the molar value.
Returns one of T or F; T when pIC50 is >= 9.

Worked cases, answers included:
C166: IL-18 polypeptide: V11I, C38A, S55T, C76A, C127A (protein) YFGKLESKLSIIRNLNDQVLFIDQGNRPLFEDMTDSDARDNAPRTIFIISMYKDTQPRGMAVTISVKCEKISTLSAENKIISFKEMNPPDNIKDTKSDIIFFQRSVPGHDNKMQFESSSYEGYFLAAEKERDLFKLILKKEDELGDRSIMFTVQNED; T
C151: IL-18 polypeptide: V11I, D35A, C38A, K53A, C76A, C127A (protein) YFGKLESKLSIIRNLNDQVLFIDQGNRPLFEDMTASDARDNAPRTIFIISMYADSQPRGMAVTISVKCEKISTLSAENKIISFKEMNPPDNIKDTKSDIIFFQRSVPGHDNKMQFESSSYEGYFLAAEKERDLFKLILKKEDELGDRSIMFTVQNED; F

Now look at this one.
I'd appreciate it if you could say whether C154: IL-18 polypeptide: V11I, E31A, D37A, C38A, K53A, C76A, C127A (protein) YFGKLESKLSIIRNLNDQVLFIDQGNRPLFADMTDSAARDNAPRTIFIISMYADSQPRGMAVTISVKCEKISTLSAENKIISFKEMNPPDNIKDTKSDIIFFQRSVPGHDNKMQFESSSYEGYFLAAEKERDLFKLILKKEDELGDRSIMFTVQNED has pIC50 at least equal to 9.
F
